meta.source: the supplement of paper PMC10567573

B1: ZNF8 (parent)
chain: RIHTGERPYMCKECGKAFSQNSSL

Variants of: B1
assay_comment: protein stability index of a GFP-peptide fusion (GPS, HEK-293T) (PSI 1-6); higher = more stable;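 note: lentivirally expressed fusions sorted by FACS into six bins by GFP to DsRed ratio, PSI derived from sequencing read proportions per bin multiplied by bin number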
test_context: c terminus: a fixed tail appended
Quick reference: protein stability index of the listed items.
Reply with the value as a number alone.

Past entries and their recorded results:
[[record]]
mutation_notation = "S22P"
reported = 2.6

[[record]]
mutation_notation = "C11R"
reported = 2.67

[[record]]
mutation_notation = "N21W"
reported = 1.7


The recorded protein stability index for entry C14V equals 2.72

Memo: G5S , reported protein stability index: 2.53

protein stability index measured on S22C = 3.07

For reference, reported protein stability index for C11L stands at 2.68

The variant N21A showed protein stability index equal to 1.94

Per the record, R1T has protein stability index of 3.22
